test-protocol: Potential characterization of nucleic acid lipid nanoparticle preparations
Assay type: physicochemical
study-conditions: DMG-PEG2000:DSPC:Chol:compound 1.40:11.15:38.95:48.50, N/P 20
attribute-measured: Zeta potential (mV)

{"compound": "CCCCCCCCCCCCOC(=O)C(O)CN(CCCCCCCN(CC(O)C(=O)OCCCCCCCCCCCC)CC(O)C(=O)OCCCCCCCCCCCC)CC(O)C(=O)OCCCCCCCCCCCC (stereo not drawn)", "unit-descriptor": "mV", "Zeta potential (mV)": 9.14}

(a) CCCCCCCCCCOC(=O)C(O)CN(CCOCCN(CC(O)C(=O)OCCCCCCCCCC)CC(O)C(=O)OCCCCCCCCCC)CC(O)C(=O)OCCCCCCCCCC (stereo not drawn)
(b) CCCCCCCCCCOC(=O)C(O)CN(CCOCCOCCN(CC(O)C(=O)OCCCCCCCCCC)CC(O)C(=O)OCCCCCCCCCC)CC(O)C(=O)OCCCCCCCCCC (stereo not drawn)
INPUT: // task: argmin of Zeta potential (mV) over [ a , b ] Kindly state the label of the option you pick.
OUTPUT: b
